# study.system: T1, cynomolgus monkey His6-GITR (cynomolgus monkey)
# T1 construct: His6-tagged recombinant protein; also called cGITR-His; cyno GITR-His
# T1 chain: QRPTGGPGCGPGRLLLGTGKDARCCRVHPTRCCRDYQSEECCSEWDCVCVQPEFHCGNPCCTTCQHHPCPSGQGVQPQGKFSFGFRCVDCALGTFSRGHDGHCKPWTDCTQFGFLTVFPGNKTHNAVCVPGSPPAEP
# assay.notes: ELISA, scFv periplasmic extract on coated His6-GITR
experimental.endpoint: cGITR-His/BKG (fold over background)
Quick reminder: number only, in fold over background, skip the unit.

Below: 2 binders and their reported cGITR-His/BKG.
INSERT INTO results (binder, value_observed) VALUES
  ('GITR-Mab-7 scFv (scFv, V domains shown, scFv in periplasmic extract, V5 tag) VH: QVQLVQSGAEVKKPGASVKVSCKASGGTSSTYAVTWVRQAPGQGLEWMGVINPNDGSTTYAQNFQGRVTMTRDTSTSTVYMELSSLRSEDTAVYYCARWTPLFGVVIPDYYYYGMDVWGQGTLVTVSS VL: DIQMTQSPSSLSASVGDRVTITCQASQDISNYLNWYQQKPGKAPKLLIYAASSLQSGVPSRFSGSGSGTDFTLTISSLQPEDFATYYCQQSYSTPPTFGQGTRLEIK', 9),
  ('GITR-Mab-22 scFv (scFv, V domains shown, scFv in periplasmic extract, V5 tag) VH: QVQLVQSGAEVKKPGASVKVSCKASGGRFSTYALSWVRQAPGQGLEWMGIINPTDGSTTYAQKFQGRVTMTRDTSTSTVYMELSSLRSEDTAVYYCARDVYSSSWYSDYWGQGTLVTVSS VL: DIQMTQSPSSLSASVGDRVTITCRASQSISNWLAWYQQKPGKAPKLLIYAASTLQSGVPSRFSGSGSGTDFTLTISSLQPEDFATYYCQQSYSVPFTFGPGTKVDIK', 23.3);

Shift focus to the following entry.
Problem: Form field: reported cGITR-His/BKG of GITR-Mab-33 scFv (scFv, V domains shown, scFv in periplasmic extract, V5 tag) VH: EVQLLESGGGLVKPGGSLRLSCAASGFMFSSYSMNWVRQAPGKGLEWVSYISGNSGYTNYADSVKGRFTISRDDSKNTLYLQMNSLKTEDTAVYYCARRLHGMDVWGQGTTVTVSS VL: DIQMTQSPSSLSASVGDRVTITCRASQSISTWLAWYQQKPGKAPKLLIYDASNLETGVPSRFSGSGSGTDFTLTISSLQPEDFATYYCQQAYRFPVAFGGGTKVEIK
Solution: 1.3
